- System: BaF3 wild-type cells
- procedure.text: Cellular screening, BaF3 wild-type cells, Alamar Blue
- Type: cell-based
- assay.setup: Mus musculus, 40 hr, read-out: BAF3wt IC50_nM
reported.endpoint: IC50

A selection of reference data follows.
OCc1cccc(Sc2ccnc(Nc3ccc(N4CCOCC4)cc3)n2)c1 [Compound 62]: < 20 µM
C=CC(=O)Nc1ccc(Sc2nc(Nc3cccc(N4CCOCC4)c3)ncc2F)cc1 [Compound 267]: < 5 µM
Cc1cnc(Nc2ccc(N3CCOCC3)cc2)nc1Sc1ccc(Cn2cnc(C#N)c2C#N)cc1 [Compound 221]: < 1 µM
COc1cc(Sc2ccnc(Nc3ccc(N4CCOCC4)cc3)n2)ccc1N [Compound 117]: < 5 µM

Query :: Bench note: what IC50 did C=CC(=O)Nc1ccc(Sc2ccnc(Nc3ccc(C#N)cc3)n2)cc1 [Compound 131] show?
Result :: < 5 µM

Query :: Can you share its IC50? I mean this compound: C=CC(=O)Nc1cccc(Sc2ccnc(Nc3ccc(OC)cc3)n2)c1 [Compound 120]
Result :: > 20 µM

Query :: Consider the compound NCc1cccc(Sc2ccnc(Nc3ccc(N4CCOCC4)cc3)n2)c1 [Compound 75] and give its measured IC50.
Result :: < 20 µM

Query :: Item under review: Cc1cnc(Nc2ccc(O)cc2)nc1Sc1ccc(N)cc1 [Compound 191] . Reported IC50?
Result :: < 5 µM

Query :: Any idea what its IC50 is? The compound is C=CC(=O)Nc1ccc(Sc2nc(Nc3cccc(O)c3)ncc2C)cc1 [Compound 281]
Result :: < 20 µM
